// provenance: PubChem BioAssay (NCI)

- Tested on: NCI-H23 lung
- assay-overview: NCI-60 one-dose screen, 48 h (100 = growth as untreated, 0 = no growth, -100 = all killed)
- assay-conditions: 10 µM
Compounds without any hit were thinned out: in the full panel of roughly 83,000, 20% have a hit.
result-type: growth (%)

> print(dat)
                                    compound  study.system  numeric.value
 1  COc1cc(C2c3cc4c(cc3C3OC(=O)C2C3CO)OCO4)cc(OC)c1OC (stereo not given)  NCI-H23 lung           14.7
 2  OC(c1ccccn1)C(O)c1ccccn1 (stereo not given)  NCI-H23 lung           97.5
 3                     COc1ccc(NC(=O)CCl)cc1  NCI-H23 lung           61.7
 4  C[N+](C)=c1ccc2nc3c(cc(Nc4ccccc4)c4ccccc43)oc-2c1  NCI-H23 lung           31.6
 5                   S=c1[nH]ccn1-c1ccccc1Cl  NCI-H23 lung            112
 6              O=C(CC(=O)c1ccccc1O)c1ccccc1  NCI-H23 lung           80.8
 7  COc1cc(-c2ccc(NC(=O)NC3CC3)c(OC)c2)ccc1NC(=O)NC1CC1  NCI-H23 lung           98.3
 8  C[C@]12CC[C@@H]3c4ccc(OCC(=O)O)cc4CC[C@H]3[C@@H]1CCC2=O  NCI-H23 lung           94.2
 9               CN(C)CCN(Cc1ccccc1)c1ccccc1  NCI-H23 lung           99.8
10                          NC(=S)NN=C1CCCC1  NCI-H23 lung           83.2
11      O=P(O)(O)OCC(O)CO (stereo not given)  NCI-H23 lung            107
12                 Cc1cc(NC(=O)CSCC(=O)O)no1  NCI-H23 lung            102
13                          N#CCCc1ccc(O)cc1  NCI-H23 lung            117
14             Oc1ccc(N=Nc2ccc(Br)cc2)c(O)c1  NCI-H23 lung           19.6
15   CCOC(=O)C1=C(Nc2ccc(Br)cc2)C(=O)N(CC)C1  NCI-H23 lung           98.8
16  CN(C)c1ccc(CNC(C(=O)c2ccccc2)c2ccccc2)cc1 (stereo not given)  NCI-H23 lung           98.5
17  CC1(C(=O)O)NC(C(=O)O)Cc2c1[nH]c1ccccc21 (stereo not given)  NCI-H23 lung            101
18  COc1ccc(-c2cc(-c3cc(-c4ccc(OC)cc4)nc(N)n3)nc(N)n2)cc1  NCI-H23 lung            102
19                 Cc1cccc([N+](=O)[O-])c1Cl  NCI-H23 lung           96.4
20          CN(C)C(=O)Oc1cccc([N+](C)(C)C)c1  NCI-H23 lung            109
21      COc1cc(/C=C/C(=O)c2ccccc2)cc(OC)c1OC  NCI-H23 lung           78.1
22  O=C1N(C[P+](c2ccccc2)(c2ccccc2)c2ccccc2)CCCN1C[P+](c1ccccc1)(c1ccccc1)c1ccccc1  NCI-H23 lung            109
23             COc1ccc(/C=C/c2cccc[n+]2C)cc1  NCI-H23 lung            100
24  CC(C)COC(=O)COC(=O)OCCOCCOC(=O)OCC(=O)OCC(C)C  NCI-H23 lung            100
25      [O-][N+](=Nc1cccc(Cl)c1)c1cccc(Cl)c1  NCI-H23 lung           94.5
26                    C/C(=N/NC(N)=O)c1ccco1  NCI-H23 lung           97.1
27                    CC(C)(O)C#CC#CC(C)(C)O  NCI-H23 lung           88.9
28    N#CC(=Nc1cccc(F)c1)C1=C(O)c2ccccc2C1=O  NCI-H23 lung           94.8
29                      C=CCOC(=O)C(=O)OCC=C  NCI-H23 lung            110
30      O=[N+]([O-])c1ccc(Cl)c(S(=O)(=O)O)c1  NCI-H23 lung            103

###

- Tested on: SF-268 CNS
- assay-overview: NCI-60 one-dose screen, 48 h (100 = growth as untreated, 0 = no growth, -100 = all killed)
- assay-conditions: 10 µM
This is part of a sample that, as a whole, favours compounds with a hit. Of some 83,000 tested, about 20% had one in any assay.
result-type: growth (%)

> print(dat)
                                    compound  numeric.value
 1                    C=CCNC(=O)c1ccc(OC)cc1            126
 2           O=C(/C=C/C(=O)c1ccccc1)c1ccccc1            107
 3  CC1CCCC(CC(N)=O)CC1 (configuration not stated)            104
 4                 CCCCCC(C)(CC(=O)O)CC(=O)O            122
 5                   O=C(O)c1ccccc1NCc1ccco1            111
 6  O=C(Cc1nc2ccc([N+](=O)[O-])cc2nc1CC(=O)c1cccnc1)c1cccnc1             47
 7  CCCCCCCCCCC(C)Br (configuration not stated)            113
 8                O=S(=O)(O)c1ccc(Cl)c(Cl)c1            113
 9                  c1ccc2c(N3CCCCC3)ncnc2c1            102
10  OC1OC(COC(c2ccccc2)(c2ccccc2)c2ccccc2)C(O)C(O)C1O (configuration not stated)           97.7
11                 N#CSc1cc(S(N)(=O)=O)ccc1N            108
12                CC(=O)Cc1ccc(-c2ccccc2)cc1             98

###

- System: PC-3 prostate
- assay-overview: NCI-60 one-dose screen, 48 h (100 = growth as untreated, 0 = no growth, -100 = all killed)
- assay-conditions: 10 µM
- Experimental: Growth inhibition of the PC-3 human tumor cell line is measured as a screen for anti-cancer activity. Cells are grown in 96 well plates and exposed to the test compound for 48 hours. Compounds are tested at a single concentration, which is 10^-5 M for most compounds. The reported endpoint is percent growth (GI% or GIPRCNT), where numbers from 0 - 100% represent growth inhibition, and numbers from -100% - 0 represent cell death. For example, a value of 40 represents 60% growth inhibition. […]
The panel holds about 83,000 compounds, 20% with a hit somewhere; the sample as a whole holds those more often.
Given measured growth, output condition met if it is greater than or equal to 80% and condition not met if not.

molecule	category-label
COC(=O)c1cccnc1	condition met
N#CC(=Nc1cccc(F)c1)C1=C(O)c2ccccc2C1=O	condition met
O/N=C/c1ccc(O)cc1O	condition met
O=C(Cc1nc2ccc([N+](=O)[O-])cc2nc1CC(=O)c1cccnc1)c1cccnc1	condition met
CC(=O)OCCC(C)CCC=C(C)C (configuration not stated)	condition met
COc1ccc(/C(C#N)=C2C=C/C(=N/O)c3ccccc3\2)cc1	condition not met
COc1cc(C(=O)NC(=S)Nc2ccc3ccccc3c2)cc(OC)c1OC	condition met
C[C@]12CC[C@@H]3c4ccc(OCC(=O)O)cc4CC[C@H]3[C@@H]1CCC2=O	condition met
O=c1cc(-c2ccccc2)[nH]c(=S)[nH]1	condition met
O=C(O)c1cc([N+](=O)[O-])ccc1Cl	condition met
O=C(Nc1ccccc1)OCCc1ccccc1	condition met
COc1ccc(OC)c(/C=C2\CCc3ccccc3C2=O)c1	condition not met
CC(C)OC(=O)c1cc(NC(=S)OC(C)C)ccc1Cl	condition met
O=C1OC(=O)C2C1C1(Cl)C(Cl)=C(Cl)C2(Cl)C2C(=O)OC(=O)C21 (configuration not stated)	condition met
N#Cc1c(N)sc(=S)c2c1CCCC2	condition met
O=C(O)CCC(=O)OC(C1CO1)C(OC(=O)CCC(=O)O)C1CO1 (configuration not stated)	condition met
CO[C@H]1C[C@@H]2CC[C@@H](C)[C@@](O)(O2)C(=O)C(=O)N2CCCC[C@H]2C(=O)O[C@H]([C@H](C)C[C@@H]2CC[C@@H](O)[C@H](OC)C2)CC(=O)[C@H](C)C=C(C)[C@@H](O)[C@@H](OC)C(=O)[C@H](C)C[C@H](C)/C=C/C=C/C=C1C	condition not met
Cc1ccc(C)n1-c1ccsc1C(=O)NNC(=O)C(Cl)Cl	condition met
COC(=O)/C=C/C(=O)NC(N)=O	condition met
CCN(CC)c1ccc2nc3ccc(=[N+](CC)CC)cc-3oc2c1	condition not met
CCS(=O)(=O)c1cc(=O)[nH]c(=O)[nH]1	condition met
CCCNc1ccc(C2=NCCCN2)cc1	condition met
COc1cc(-c2ccc(NC(=O)NC3CC3)c(OC)c2)ccc1NC(=O)NC1CC1	condition not met
O=C(O)/C=C/C(=O)NCc1ccccc1	condition met
O=C(NCCNC(=O)c1ccc(Cl)cc1Cl)c1ccc(Cl)cc1Cl	condition met
C/C(=C\c1ccc([N+](=O)[O-])cc1)C(=O)O	condition met
CCCCOC(=O)c1ccc(C(C)C)cc1	condition met
Oc1ccc(Cc2ccccc2)c2cccnc12	condition not met
C=CCNc1nnc(C)s1	condition met
OCCN1CCOCC1	condition met
c1cc[n+](C2c3ccccc3C([n+]3ccccc3)c3ccccc32)cc1 (configuration not stated)	condition not met
NC(N)=Nc1cc2ccccc2c2ccccc12	condition not met
C=CCCCCCCCCCOC(C)=O	condition met
C#CC(C(C)C)N(CCO)CCCC (configuration not stated)	condition met
C/C=C/CC(C)C(O)C1C(=O)NC(CC)C(=O)N(C)CC(=O)N(C)C(CC(C)C)C(=O)NC(C(C)C)C(=O)N(C)C(CC(C)C)C(=O)NC(C)C(=O)NC(C)C(=O)N(C)C(CC(C)C)C(=O)N(C)C(CC(C)C)C(=O)N(C)C(C(C)C)C(=O)N1C (configuration not stated)	condition not met
